- Test system: Streptococcus pyogenes, ATCC 700294
- experiment.notes: Minimal inhibitory concentration assay (microbroth dilution)
- Format: cell-based
- measurement.setup: Streptococcus pyogenes, ATCC700294; read-out: Minimal Inhibitory Concentrations S. pyogenes ATCC 700294
*1 amine or outer side, *2 acyl side, *3 side chain or, on linkers, in order; H or OH if unused. Where a SMILES comes first, the peptide text is derived from it. Bridges are numbered along the chain shown (N, C = ends). [ ]: non-standard residue; d: D form. The star is where a group is joined. ξ: configuration not given here. NH(1,3-benzodioxol-5-yl) = c1cc2c(cc1N*)OCO2; Phe(3,5-F2) = N[C@@H](Cc1cc(F)cc(F)c1)C(=O)O; NH(4-OCF3-phenyl) = FC(F)(F)Oc1ccc(N*)cc1; Morpholine(3S-CO) = O=C(O)[C@@H]1COCCN1; Pro(4S-Me) = C[C@@H]1CN[C@H](C(=O)O)C1; Pro(4R-Me) = C[C@H]1CN[C@H](C(=O)O)C1; NMeaThr = CN[C@H](C(=O)O)[C@H](C)O; ξPro(4R-Me) = C[C@H]1CNC(C(=O)O)C1; Hyp = O=C(O)[C@@H]1C[C@@H](O)CN1; NH(4-Et-phenyl) = CCc1ccc(N*)cc1; aThr = C[C@H](O)[C@H](N)C(=O)O; Pip = O=C(O)[C@@H]1CCCCN1; NMeA = CN[C@@H](C)C(=O)O; X1 = N#Cc1cc(N*)ccc1F; ξPip = O=C(O)C1CCCCN1; CO = O=C([*:1])[*:2]; ξP = O=C(O)C1CCCN1
property.measured: MIC (µM)
The answer is to be given in µM; state only the numeric part.

Consider the worked cases shown below.
Answer with the recorded MIC of CCc1ccc(NC(=O)N[C@@H](Cc2cc(F)cc(F)c2)C(=O)N[C@@H]2C(=O)N3C[C@H](O)C[C@H]3C(=O)N3CCOC[C@H]3C(=O)N[C@@H](C)C(=O)N3C[C@H](C)C[C@H]3C(=O)O[C@H]2C)cc1 [Compound 320] ({NH(4-Et-phenyl)-CO}-[Phe(3,5-F2)][aThr][Hyp][Morpholine(3S-CO)]A[Pro(4R-Me)]; ester 2-C) only.
0.039

Entry C[C@@H]1C[C@H]2C(=O)O[C@@H](C)[C@H](NC(=O)[C@H](Cc3cc(F)cc(F)c3)NC(=O)Nc3ccc4c(c3)OCO4)C(=O)N3C[C@H](O)C[C@H]3C(=O)N3CCOC[C@H]3C(=O)N[C@@H](C)C(=O)N2C1 [Compound 319] ({NH(1,3-benzodioxol-5-yl)-CO}-[Phe(3,5-F2)][aThr][Hyp][Morpholine(3S-CO)]A[Pro(4R-Me)]; ester 2-C) needs its MIC filled in; supply it.
0.313

Tell me its MIC given "C[C@@H]1C[C@H]2C(=O)OC[C@H](NC(=O)[C@H](Cc3cc(F)cc(F)c3)NC(=O)Nc3ccc4c(c3)OCO4)C(=O)N3CCC[C@H]3C(=O)N3CCCC[C@H]3C(=O)N[C@@H](C)C(=O)N2C1" as the entry.
0.3

***
Report MIC for C[C@@H]1C[C@H]2C(=O)O[C@@H](C)[C@H](NC(=O)[C@H](Cc3cc(F)cc(F)c3)NC(=O)Nc3ccc(F)c(C#N)c3)C(=O)N3CCC[C@H]3C(=O)N3CCCC[C@H]3C(=O)N[C@@H](C)C(=O)N2C1 [Compound 324] ({X1-CO}-[Phe(3,5-F2)][aThr]P[Pip]A[Pro(4R-Me)]; ester 2-C)
1.25

Quote MIC reported for C[C@H]1C[C@H]2C(=O)O[C@@H](C)[C@H](NC(=O)[C@H](Cc3cc(F)cc(F)c3)NC(=O)Nc3ccc4c(c3)OCO4)C(=O)N3CCC[C@H]3C(=O)N3CCCC[C@H]3C(=O)N[C@@H](C)C(=O)N2C1 [Compound 20] ({NH(1,3-benzodioxol-5-yl)-CO}-[Phe(3,5-F2)][aThr]P[Pip]A[Pro(4S-Me)]; ester 2-C) please.
0.4

Respond only with MIC recorded for CCc1ccc(NC(=O)N[C@@H](Cc2cc(F)cc(F)c2)C(=O)N[C@@H]2C(=O)N3CCCC3C(=O)N(C)[C@@H](C)C(=O)N[C@@H](C)C(=O)N3CCCC3C(=O)O[C@H]2C)cc1 (stereo partly shown) [Compound 29] ({NH(4-Et-phenyl)-CO}-[Phe(3,5-F2)][aThr][ξP][NMeA]A[ξP]; ester 2-C)
0.13

Determine its reported MIC: C[C@@H]1NC(=O)[C@@H]2CCCCN2C(=O)[C@@H]2CCCN2C(=O)[C@@H](NC(=O)[C@H](Cc2cc(F)cc(F)c2)NC(=O)Nc2ccc3c(c2)OCO3)[C@H](C)OC(=O)[C@@H]2CCCN2C1=O [Compound 17] ({NH(1,3-benzodioxol-5-yl)-CO}-[Phe(3,5-F2)][aThr]P[Pip]AP; ester 2-C)
1.5

Consider the molecule C[C@H]1C[C@H]2C(=O)O[C@@H](C)[C@H](NC(=O)[C@H](Cc3cc(F)cc(F)c3)NC(=O)Nc3ccc(OC(F)(F)F)cc3)C(=O)N3CCC[C@H]3C(=O)N(C)[C@@H]([C@H](C)O)C(=O)N[C@@H](C)C(=O)N2C1 [Compound 203] ({NH(4-OCF3-phenyl)-CO}-[Phe(3,5-F2)][aThr]P[NMeaThr]A[Pro(4S-Me)]; ester 2-C) . State its measured MIC.
0.195

Give the measured MIC for C[C@@H]1CC2C(=O)O[C@@H](C)[C@H](NC(=O)[C@H](Cc3cc(F)cc(F)c3)NC(=O)Nc3ccc(OC(F)(F)F)cc3)C(=O)N3CCCC3C(=O)N3CCCCC3C(=O)N[C@@H](C)C(=O)N2C1 (stereo partly drawn) [Compound 40] ({NH(4-OCF3-phenyl)-CO}-[Phe(3,5-F2)][aThr][ξP][ξPip]A[ξPro(4R-Me)]; ester 2-C)
0.4

Report MIC, nothing else, for this molecule: CN(C)[C@@H]1C(O)=C(C(N)=O)C(=O)[C@@]2(O)C(O)=C3C(=O)c4c(O)cccc4[C@@](C)(O)[C@H]3C[C@@H]12 [Tetracycline, tetracycline, reference compound]
0.1

* * *

- Tested on: Streptococcus pyogenes, ATCC 700294
- experiment.notes: Minimal inhibitory concentration assay (microbroth dilution)
- Format: cell-based
- measurement.setup: Streptococcus pyogenes, ATCC700294, read-out: Minimal Inhibitory Concentrations S. pyogenes ATCC 700294
*1 amine or outer side, *2 acyl side, *3 side chain or, on linkers, in order; H or OH if unused. Where a SMILES comes first, the peptide text is derived from it. Bridges are numbered along the chain shown (N, C = ends). [ ]: non-standard residue; d: D form. The star is where a group is joined. ξ: configuration not given here. Phe(3,5-F2) = N[C@@H](Cc1cc(F)cc(F)c1)C(=O)O; ξPro(4R-Me) = C[C@H]1CNC(C(=O)O)C1; NH(4-Me-phenyl) = Cc1ccc(N*)cc1; aThr = C[C@H](O)[C@H](N)C(=O)O; ξPip = O=C(O)C1CCCCN1; CO = O=C([*:1])[*:2]; ξP = O=C(O)C1CCCN1
# Lookup of reported MIC keyed by entry
Answer in µM, number only, no unit symbol.

Output MIC of Cc1ccc(NC(=O)N[C@@H](Cc2cc(F)cc(F)c2)C(=O)N[C@@H]2C(=O)N3CCCC3C(=O)N3CCCCC3C(=O)N[C@@H](C)C(=O)N3C[C@H](C)CC3C(=O)O[C@H]2C)cc1 (stereo partly drawn) [Compound 39] ({NH(4-Me-phenyl)-CO}-[Phe(3,5-F2)][aThr][ξP][ξPip]A[ξPro(4R-Me)]; ester 2-C)
0.2

Kindly indicate its recorded MIC. Item: C[C@@H]1C[C@H]2C(=O)OC[C@H](NC(=O)[C@H](Cc3ccccc3)NC(=O)Nc3ccc4ccn(C)c4c3)C(=O)N3CCC[C@H]3C(=O)N3CCCC[C@H]3C(=O)N[C@@H](C)C(=O)N2C1 [Compound 12]
0.6

* * *

- system.name: Sa-ClpP (Staphylococcus aureus)
- Construct: made in house; host or cells: E. coli BL21(DE3)
- Sequence (Q2G036 whole entry): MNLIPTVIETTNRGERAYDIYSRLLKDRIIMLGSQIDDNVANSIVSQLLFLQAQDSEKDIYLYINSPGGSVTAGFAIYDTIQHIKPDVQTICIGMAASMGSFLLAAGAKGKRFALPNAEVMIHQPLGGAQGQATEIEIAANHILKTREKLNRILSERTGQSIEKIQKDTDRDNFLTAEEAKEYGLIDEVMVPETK
- experiment.notes: Sa-ClpP casein-BODIPY ClpP activation assay, method variant not marked in Table 5
- Type: biochemical, S. aureus
- measurement.setup: values without ** or † mark; assay variant not stated; read-out: ClpP Activation EC50
*1 amine or outer side, *2 acyl side, *3 side chain or, on linkers, in order; H or OH if unused. Where a SMILES comes first, the peptide text is derived from it. Bridges are numbered along the chain shown (N, C = ends). [ ]: non-standard residue; d: D form. The star is where a group is joined. ξ: configuration not given here. Phe(3,5-F2) = N[C@@H](Cc1cc(F)cc(F)c1)C(=O)O; NH(1-Me-indolin-5-yl) = CN1CCc2cc(N*)ccc21; NH(4-OCF3-phenyl) = FC(F)(F)Oc1ccc(N*)cc1; Pro(4S-Me) = C[C@@H]1CN[C@H](C(=O)O)C1; Pro(4R-Me) = C[C@H]1CN[C@H](C(=O)O)C1; NMeaThr = CN[C@H](C(=O)O)[C@H](C)O; NH(4-Me-phenyl) = Cc1ccc(N*)cc1; ξNMeThr = CNC(C(=O)O)[C@@H](C)O; aThr = C[C@H](O)[C@H](N)C(=O)O; Pip = O=C(O)[C@@H]1CCCCN1; X2 = CN1CCc2ccc(N*)cc21; CO = O=C([*:1])[*:2]
Threshold-based label: EC50 under 500 nM gives yes (1), EC50 not under 500 nM gives no (0).

For orientation, consider the following solved cases.
Below 500 nM on EC50? Entry Cc1ccc(NC(=O)N[C@@H](Cc2cc(F)cc(F)c2)C(=O)N[C@@H]2C(=O)N3CCC[C@H]3C(=O)N(C)[C@@H]([C@H](C)O)C(=O)N[C@@H](C)C(=O)N3C[C@@H](C)C[C@H]3C(=O)O[C@H]2C)cc1 [Compound 202] ({NH(4-Me-phenyl)-CO}-[Phe(3,5-F2)][aThr]P[NMeaThr]A[Pro(4S-Me)]; ester 2-C)
yes (1)

Bench note: check whether C[C@@H]1C[C@H]2C(=O)O[C@@H](C)[C@H](NC(=O)[C@H](Cc3cc(F)cc(F)c3)NC(=O)Nc3ccc4c(c3)CCN4C)C(=O)N3CCC[C@H]3C(=O)N3CCCC[C@H]3C(=O)N[C@@H](C)C(=O)N2C1 [Compound 310] ({NH(1-Me-indolin-5-yl)-CO}-[Phe(3,5-F2)][aThr]P[Pip]A[Pro(4R-Me)]; ester 2-C) shows EC50 below 500 nM
yes (1)

A record lists C[C@H]1C[C@H]2C(=O)O[C@@H](C)[C@H](NC(=O)[C@H](Cc3cc(F)cc(F)c3)NC(=O)Nc3ccc(OC(F)(F)F)cc3)C(=O)N3CCC[C@H]3C(=O)N(C)[C@@H]([C@H](C)O)C(=O)N[C@@H](C)C(=O)N2C1 [Compound 203] ({NH(4-OCF3-phenyl)-CO}-[Phe(3,5-F2)][aThr]P[NMeaThr]A[Pro(4S-Me)]; ester 2-C) . Is its EC50 below 500 nM?
yes (1)

***
Does the reported EC50 of C[C@@H]1C[C@H]2C(=O)O[C@@H](C)[C@H](NC(=O)[C@H](Cc3cc(F)cc(F)c3)NC(=O)Nc3ccc4c(c3)N(C)CC4)C(=O)N3CCC[C@H]3C(=O)N3CCCC[C@H]3C(=O)N[C@@H](C)C(=O)N2C1 [Compound 321] ({X2-CO}-[Phe(3,5-F2)][aThr]P[Pip]A[Pro(4R-Me)]; ester 2-C) stay below 500 nM?
no (0)

Hello, is EC50 of the following molecule strictly smaller than 500 nM? C[C@@H]1C[C@H]2C(=O)O[C@@H](C)[C@H](NC(=O)[C@H](Cc3cc(F)cc(F)c3)NC(=O)Nc3ccc4c(c3)CCN4C)C(=O)N3CCC[C@H]3C(=O)N(C)C([C@@H](C)O)C(=O)N[C@@H](C)C(=O)N2C1 (stereo partly drawn) [Compound 311] ({NH(1-Me-indolin-5-yl)-CO}-[Phe(3,5-F2)][aThr]P[ξNMeThr]A[Pro(4R-Me)]; ester 2-C)
no (0)
